So I've got a bunch of sequences here, and I need their Rank (after) values.
- TARGET SYSTEM: MAL^TIR (Homo sapiens, UniProt P58753)
- Construct: MAL (residues 79–221); 6xHis; made in house; host or cells: E. coli BL21 (DE3)
- Sequence (P58753 79-221): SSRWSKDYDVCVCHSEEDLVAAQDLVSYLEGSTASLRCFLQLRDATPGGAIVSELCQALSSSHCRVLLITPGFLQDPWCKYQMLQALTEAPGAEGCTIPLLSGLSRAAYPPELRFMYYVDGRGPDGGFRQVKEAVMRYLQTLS
- RUN DESCRIPTION: T‐Surf phage library (P8 and P3) selection against MAL^TIR, four rounds, NGS read counts
- Type: binding
- STATED CONDITIONS: P8_MAL: rank by count after grouping
Hey, just send me the number, nothing else.

Form field: Rank (after) recorded for `PFFWEHLRHLLRSHTL` with MAL^TIR (Homo sapiens, UniProt P58753) (enter value) 480

Form field: Rank (after) recorded for `YFLHFMLFRRRGTEYI` with MAL^TIR (Homo sapiens, UniProt P58753) (enter value) 439

Form field: Rank (after) recorded for `REFIKKIILWMNPKIV` with MAL^TIR (Homo sapiens, UniProt P58753) (enter value) 109

Form field: Rank (after) recorded for `SEFIQKIILWMNQQIV` with MAL^TIR (Homo sapiens, UniProt P58753) (enter value) 441

Form field: Rank (after) recorded for `WLYVRLVSLILRDTKV` with MAL^TIR (Homo sapiens, UniProt P58753) (enter value) 144

Form field: Rank (after) recorded for `AFLYTFMINLTHPTTF` with MAL^TIR (Homo sapiens, UniProt P58753) (enter value) 126
